Cited source: PubChem BioAssay AID2060603

Measured viability, T/C of individual entries
# Tested on: 422866-222-R5-J1-PDC spheroid viability
# assay_remarks: Anticancer human tumor 422866-222-R5-J1-PDC patient-derived pancreatic adenocarcinoma cell line growth inhibition [CLK]
# experimental_conditions: second compound 1 µM; first compound 0.01 µM; hits give low values; spheroids with HUVEC and MSC
# Excerpt: A high-throughput screen of multi-cell type tumor spheroids was designed to identify active combinations of […] and targeted small molecules. Complex spheroids include a stromal component modeled by human endothelial cells (HUVEC) and fibroblasts modeled by human mesenchymal stem cells (MSCs). […] Compounds. […] If the clinical Cmax for an agent had not been determined, the highest concentration tested was 10 microM. […]

compound | scale_unit | viability, T/C
Cn1ncnc1[C@H]1c2n[nH]c(=O)c3cc(F)cc(c23)N[C@@H]1c1ccc(F)cc1 + CN1CCN(c2cc(C(=O)Nc3cc4cc(-c5cnn(C)c5)ccc4cn3)ccn2)CC1 | % | 22.3
COc1c(OCCCN2CCOCC2)ccc2c3n(c(=NC(=O)c4cnc(N)nc4)nc12)CCN3 + CN1CCN(c2cc(C(=O)Nc3cc4cc(-c5cnn(C)c5)ccc4cn3)ccn2)CC1 | % | 33.4
CCN1CCN(Cc2ccc(Nc3ncc(F)c(-c4cc(F)c5nc(C)n(C(C)C)c5c4)n3)nc2)CC1 + CN1CCN(c2cc(C(=O)Nc3cc4cc(-c5cnn(C)c5)ccc4cn3)ccn2)CC1 | % | 37.7
CCN1CCN(Cc2ccc(Nc3ncc(F)c(-c4cc(F)c5nc(C)n(C(C)C)c5c4)n3)nc2)CC1 + CNC(=O)c1ccc(Nc2nc(OC3CCCC3)c3c(-c4ccc5nc(C)oc5c4)c[nH]c3n2)c(OC)c1 | % | 62.8
Cn1ncnc1[C@H]1c2n[nH]c(=O)c3cc(F)cc(c23)N[C@@H]1c1ccc(F)cc1 + CNC(=O)c1ccc(Nc2nc(OC3CCCC3)c3c(-c4ccc5nc(C)oc5c4)c[nH]c3n2)c(OC)c1 | % | 52.4
CCc1c2c(nc3ccc(O)cc13)-c1cc3c(c(=O)n1C2)COC(=O)[C@]3(O)CC + CN1CCN(c2cc(C(=O)Nc3cc4cc(-c5cnn(C)c5)ccc4cn3)ccn2)CC1 | % | 12.7
COc1c(OCCCN2CCOCC2)ccc2c3n(c(=NC(=O)c4cnc(N)nc4)nc12)CCN3 + CNC(=O)c1ccc(Nc2nc(OC3CCCC3)c3c(-c4ccc5nc(C)oc5c4)c[nH]c3n2)c(OC)c1 | % | 47.1
CCc1c2c(nc3ccc(O)cc13)-c1cc3c(c(=O)n1C2)COC(=O)[C@]3(O)CC + CNC(=O)c1ccc(Nc2nc(OC3CCCC3)c3c(-c4ccc5nc(C)oc5c4)c[nH]c3n2)c(OC)c1 | % | 28.1

###

# Tested on: 422866-222-R5-J1-PDC spheroid viability
# assay_remarks: Anticancer human tumor 422866-222-R5-J1-PDC cell line growth inhibition [CLK];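 further: spheroids exposed to agents for seven days before readout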
# experimental_conditions: second compound 1 µM; first compound 0.003 µM; hits give low values; spheroids with HUVEC and MSC
test_readout: viability, T/C (%)

compound | system_name | test_readout | numeric_value
C=CC(=O)Nc1cc(Nc2nccc(-c3cn(C)c4ccccc34)n2)c(OC)cc1N(C)CCN(C)C + CN1CCN(c2cc(C(=O)Nc3cc4cc(-c5cnn(C)c5)ccc4cn3)ccn2)CC1 | 422866-222-R5-J1-PDC spheroid viability | viability, T/C | 36.8
C=CC(=O)Nc1cc(Nc2nccc(-c3cn(C)c4ccccc34)n2)c(OC)cc1N(C)CCN(C)C + CNC(=O)c1ccc(Nc2nc(OC3CCCC3)c3c(-c4ccc5nc(C)oc5c4)c[nH]c3n2)c(OC)c1 | 422866-222-R5-J1-PDC spheroid viability | viability, T/C | 65.8
CC(C)CC(NC(=O)C(Cc1ccccc1)NC(=O)c1cnccn1)B(O)O (centres undefined) + CN1CCN(c2cc(C(=O)Nc3cc4cc(-c5cnn(C)c5)ccc4cn3)ccn2)CC1 | 422866-222-R5-J1-PDC spheroid viability | viability, T/C | 4.84
CC(C)CC(NC(=O)C(Cc1ccccc1)NC(=O)c1cnccn1)B(O)O (centres undefined) + CNC(=O)c1ccc(Nc2nc(OC3CCCC3)c3c(-c4ccc5nc(C)oc5c4)c[nH]c3n2)c(OC)c1 | 422866-222-R5-J1-PDC spheroid viability | viability, T/C | 67.8
